Target: recombinant soluble homotrimeric HA of A/duck/Yangzhou/02/05 (H8N4) (Influenza A virus A/duck/Yangzhou/02/2005(H8N4))
Assay: trimeric HA microarray, transfection supernatant set 5
Details: remark: other sources report otherwise
Measured metric: Trimeric HA Binding: RLU (RLU)
Lab book: enter the figure in RLU, no units written.

Binder	Measured metric	Unit tag	Experimental result
TCN-538 (3206_O17) (antibody, V domains shown) VH: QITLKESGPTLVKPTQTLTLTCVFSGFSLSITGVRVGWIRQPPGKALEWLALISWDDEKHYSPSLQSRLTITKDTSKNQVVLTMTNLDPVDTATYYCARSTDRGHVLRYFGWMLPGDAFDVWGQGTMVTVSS VL: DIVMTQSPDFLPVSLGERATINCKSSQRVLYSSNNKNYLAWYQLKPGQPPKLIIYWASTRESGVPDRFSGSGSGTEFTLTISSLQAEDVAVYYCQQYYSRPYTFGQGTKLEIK	Trimeric HA Binding: RLU	RLU	4060

Looking up TCN-537 (3194_D21) (antibody, V domains shown) VH: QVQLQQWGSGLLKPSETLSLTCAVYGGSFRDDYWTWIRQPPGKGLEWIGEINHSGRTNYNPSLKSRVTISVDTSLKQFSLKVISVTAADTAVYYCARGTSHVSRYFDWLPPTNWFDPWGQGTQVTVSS VL: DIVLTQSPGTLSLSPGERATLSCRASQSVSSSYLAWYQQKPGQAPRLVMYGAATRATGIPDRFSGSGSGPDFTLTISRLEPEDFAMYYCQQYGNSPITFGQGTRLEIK , I see its Trimeric HA Binding: RLU listed as 25500

Data credit: patent US20150086555A1
